Target: CynT2 (Escherichia coli, UniProt P61517)
Construct: gene can; full-length synthetic gene, 220 residues, no signal peptide, N-terminal His6 fusion (pET100D-Topo), expressed in E. coli BL21(DE3) codon plus, about 29 kDa subunit, tag removal not mentioned
Sequence (P61517 whole entry, the tested form may be a part): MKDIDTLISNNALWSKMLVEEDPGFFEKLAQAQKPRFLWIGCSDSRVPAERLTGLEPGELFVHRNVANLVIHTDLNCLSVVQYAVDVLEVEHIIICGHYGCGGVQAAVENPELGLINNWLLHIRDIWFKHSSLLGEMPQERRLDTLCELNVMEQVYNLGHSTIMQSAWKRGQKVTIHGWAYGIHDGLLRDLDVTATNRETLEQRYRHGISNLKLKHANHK
Test: stopped-flow CO2 hydration assay
Format: biochemical
Conditions: CO2 substrate 1.7-17 mM, pH 8.3, 20 mM Tris, 20 mM NaClO4, 15 min preincubation; read-out: KI (mM) ^1 / CynT2
reportedEndpoint: Ki (mM)
Field: numeric (mM). Do not append units.

Recorded Ki for "OB1OB2OB(O)OB(O1)O2" , please? 0.25

====

Biological target: CynT2 (Escherichia coli, UniProt P61517)
Construct: gene can; full-length synthetic gene, 220 residues, no signal peptide, N-terminal His6 fusion (pET100D-Topo), expressed in E. coli BL21(DE3) codon plus, about 29 kDa subunit, tag removal not mentioned
Assay: stopped-flow CO2 hydration assay
Assay type: biochemical
Settings: read-out: KI (mM) ^1 / CynT2
# Lookup of reported Ki keyed by entry
Dear colleague, please return just the value in mM, with no unit written.

The cases that follow already have their Ki on record.
NS(=O)(=O)O [NH2SO3H] ... 0.0025
S [HS^−] ... 2.7
O=S(=O)(O)NS(=O)(=O)O [NH(SO3)2^2−] ... 1.5
Br [Br^−] ... 3.8

Given the entry O=S(=O)(O)F [FSO3^−] , report its measured Ki. 0.83

Query (compound): O=[N+]([O-])O [NO3^−] ; field requested: Ki 2.4

Returns the measured Ki for the input compound. Input: O=NO [NO2^−] 4.9

Consider the compound shown here: NS(N)(=O)=O [NH2SO2NH2] What is its recorded Ki? 0.011

Item F [F^−] has what recorded Ki? 9.4

I'd like to know its Ki. The compound in question is CCN(CC)C(=S)S [EtNCS2^−] 0.084

Consider the compound [O]=[Ru](=[O])(=[O])[OH] [RuO4^−] and give its measured Ki. 9.5

Can you share its Ki? I mean this compound: N#C[SeH] [SeCN^−] 3.1

====

# log10(Ki) per record follows
Molecular target: CynT2 (Escherichia coli, UniProt P61517)
Construct: gene can; full-length synthetic gene, 220 residues, no signal peptide, N-terminal His6 fusion (pET100D-Topo), expressed in E. coli BL21(DE3) codon plus, about 29 kDa subunit, tag removal not mentioned
Assay: stopped-flow CO2 hydration assay
Type: biochemical
Conditions: read-out: KI (mM) ^1 / CynT2
Lab note - Ki converted to log10 from values in mM.

S=C(S)S ... 0.49

Data request, read-out log10(Ki), for "O=S(=O)(O)OOS(=O)(=O)O" 0.81

Look up log10(Ki) for this compound: "O=S(O)O" 0.57

Query: log10(Ki); subject: "O=[Te](=O)(O)O" -0.29

Which log10(Ki) reading was recorded for the compound "Cl" ? 0.83

Look at this compound and give its reported log10(Ki). "N#CS" 0.76

====

Target: CynT2 (Escherichia coli)
Construct: gene can; full-length synthetic gene, 220 residues, no signal peptide, N-terminal His6 fusion (pET100D-Topo), expressed in E. coli BL21(DE3) codon plus, about 29 kDa subunit, tag removal not mentioned
Test: stopped-flow CO2 hydration assay
Type: biochemical
Conditions: read-out: KI (mM) ^1 / CynT2
Recorded Ki values for a group of molecules are listed next.
Express your answer in mM, writing the number without its unit.

Some molecules with known Ki results, for comparison:
O=[Se](=O)(O)O [SeO4^2−] ... 3.1
N#CO [CNO^−] ... 0.58
O=S(=O)(O)O [SO4^2−] ... 1.7

Switching to the query record.
Quick check: Ki of OB(O)c1ccccc1 [PhB(OH)2] ? 0.0028
